target: MMP-2 (Homo sapiens); construct: purchased Abchem (so in the source); assay: MMP2 Inhibitor Screening Assay Kit (ab139446), colorimetric thiopeptide substrate, OD412; type: biochemical; settings: remaining enzyme activity; T-05~20 at 10 uM; read-out: MMP-2 (%) (enzyme activity, high concentration)
Sequence (P08253 110-660): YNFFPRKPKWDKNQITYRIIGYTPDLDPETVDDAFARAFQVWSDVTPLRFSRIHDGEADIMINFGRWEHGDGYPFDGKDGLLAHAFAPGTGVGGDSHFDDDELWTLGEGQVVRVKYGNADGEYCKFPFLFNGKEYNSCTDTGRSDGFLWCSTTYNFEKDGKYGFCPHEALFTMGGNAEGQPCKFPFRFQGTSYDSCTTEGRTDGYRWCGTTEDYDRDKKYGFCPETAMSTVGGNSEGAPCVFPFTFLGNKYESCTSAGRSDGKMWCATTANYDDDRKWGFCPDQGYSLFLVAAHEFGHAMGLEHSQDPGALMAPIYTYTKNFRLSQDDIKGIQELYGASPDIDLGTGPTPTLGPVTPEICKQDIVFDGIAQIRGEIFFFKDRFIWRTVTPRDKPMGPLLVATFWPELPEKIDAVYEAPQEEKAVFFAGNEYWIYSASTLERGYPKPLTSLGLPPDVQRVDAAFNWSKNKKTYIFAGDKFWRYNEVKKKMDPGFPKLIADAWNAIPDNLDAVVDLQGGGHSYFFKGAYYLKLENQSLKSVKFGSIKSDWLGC
Could you please report measured remaining activity at 10 µM for the items listed next?
Record the result as number plus unit.

// below: answered compounds
CC(C)(C)c1ccc(S(=O)(=O)NC(Cc2ccccc2)C(=O)NO)cc1 (stereo not drawn)	100%
Cc1cc(C)c(S(=O)(=O)NC(CC(C)C)C(=O)NO)c(C)c1 (stereo not drawn)	65.2%

Field: next compound
So for Cc1cc(C)c(S(=O)(=O)N2CCCCC2C(=O)NO)c(C)c1 (stereo not drawn) , the logged remaining activity at 10 µM turned out to be 84.2%
